Reference source: patent US10675256B2

tested on: Proteus mirabilis 29906 (Pm) lysate; assay: Inhibition of formation of TMA from choline in Proteus mirabilis lysate (EXAMPLE 2); assay type: biochemical; details: Proteus mirabilis 29906 lysate, d9-choline chloride substrate, 37° C. for two hours; read-out: TMA Inhibition (IC50, mol/L)
Binning scheme for IC50: 0 (below 1 µM), 1 (1 µM to below 60 µM), 2 (60 µM or more)

Past entries and their recorded results:
> print(dat)
             structure.notation                        tested.system  category.label
1            C[N+](C)(CCO)C1CC1  Proteus mirabilis 29906 (Pm) lysate               0
2        C[N+](C)(CC(N)=O)C1CC1  Proteus mirabilis 29906 (Pm) lysate               2
3  C=C(C[N+](C)(C)C1CC1)C(=O)OC  Proteus mirabilis 29906 (Pm) lysate               1
4           C#CC[N+](C)(C)C1CC1  Proteus mirabilis 29906 (Pm) lysate               0
5  CCOC(=O)CCCCC[N+](C)(C)C1CC1  Proteus mirabilis 29906 (Pm) lysate               2

Q: Which bin, given its IC50, does `C#CC[N+]1(C2CC2)CCOCC1` occupy?
A: 1

Q: Textbook exercise: identify the category of the molecule given here, `COC(=O)C(=O)C[N+](C)(C)C1CC1` , according to its measured value.
A: 1

Q: // bin(item) where item = `C=CC[N+](C)(C)C1CC1`
A: 0

Q: Class label required: `COC(=O)C[N+](C)(C)C1CC1`
A: 2

###

Task for the reader: assign each of the following molecules its reported IC50.
target: recombinant P. mirabilis Cut C/D lysate (Proteus mirabilis, UniProt B4EYG1); assay: Inhibition of conversion of choline to TMA by recombinant P. mirabilis Cut C/D lysate (EXAMPLE 5)
Sequence (B4EYG1 entry or part of it): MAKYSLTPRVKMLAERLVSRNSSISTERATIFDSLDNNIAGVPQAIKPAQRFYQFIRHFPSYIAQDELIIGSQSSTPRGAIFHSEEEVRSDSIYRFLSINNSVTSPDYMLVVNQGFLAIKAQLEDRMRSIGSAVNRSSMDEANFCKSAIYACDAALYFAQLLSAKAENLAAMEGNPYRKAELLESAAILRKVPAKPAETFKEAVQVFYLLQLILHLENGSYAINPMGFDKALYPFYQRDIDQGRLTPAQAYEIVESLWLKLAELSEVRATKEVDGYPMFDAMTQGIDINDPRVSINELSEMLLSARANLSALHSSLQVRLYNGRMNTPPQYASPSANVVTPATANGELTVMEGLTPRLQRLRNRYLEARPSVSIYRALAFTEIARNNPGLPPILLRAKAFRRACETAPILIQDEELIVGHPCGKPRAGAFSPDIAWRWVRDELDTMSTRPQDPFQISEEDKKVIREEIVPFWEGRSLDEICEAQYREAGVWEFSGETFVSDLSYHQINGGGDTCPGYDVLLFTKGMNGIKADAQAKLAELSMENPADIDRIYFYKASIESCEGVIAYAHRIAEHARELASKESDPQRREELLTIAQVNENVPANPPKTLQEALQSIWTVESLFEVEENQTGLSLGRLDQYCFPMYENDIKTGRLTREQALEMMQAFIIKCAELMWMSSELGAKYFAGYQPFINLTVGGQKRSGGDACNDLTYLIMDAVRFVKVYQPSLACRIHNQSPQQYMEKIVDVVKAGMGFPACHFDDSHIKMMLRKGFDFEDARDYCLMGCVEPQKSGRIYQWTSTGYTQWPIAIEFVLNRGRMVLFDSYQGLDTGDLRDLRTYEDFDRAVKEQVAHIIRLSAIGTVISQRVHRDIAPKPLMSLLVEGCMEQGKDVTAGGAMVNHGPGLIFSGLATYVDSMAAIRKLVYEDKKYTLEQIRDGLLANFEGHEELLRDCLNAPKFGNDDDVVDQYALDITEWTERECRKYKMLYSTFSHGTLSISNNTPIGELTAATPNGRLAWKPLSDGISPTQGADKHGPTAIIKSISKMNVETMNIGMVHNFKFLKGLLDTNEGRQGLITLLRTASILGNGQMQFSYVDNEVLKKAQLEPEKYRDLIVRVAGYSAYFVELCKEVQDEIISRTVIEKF
Sequence (B4EYG0 entry or part of it, further chain): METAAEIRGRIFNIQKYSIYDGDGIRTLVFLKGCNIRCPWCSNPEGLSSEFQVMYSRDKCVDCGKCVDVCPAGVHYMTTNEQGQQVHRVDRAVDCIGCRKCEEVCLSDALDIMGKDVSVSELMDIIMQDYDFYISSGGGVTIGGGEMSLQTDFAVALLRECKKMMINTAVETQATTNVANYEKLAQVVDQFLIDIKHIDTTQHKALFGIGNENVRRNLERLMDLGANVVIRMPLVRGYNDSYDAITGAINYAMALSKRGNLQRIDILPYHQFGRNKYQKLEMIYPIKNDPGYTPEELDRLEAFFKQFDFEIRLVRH
Give bare numbers, in nM.

The cases that follow already have their IC50 on record.
> print(dat)
                     molecule  quantity.kind  numeric.readout
1  C#CC[N+](C)(C)C1CC1 [ID 3]           IC50              150
2   C[N+](C)(CCO)C1CC1 [ID 1]           IC50              6.2

// switching to the query molecule
Q: Recall and state the measured IC50 for `C[N+](C)(CF)C1CC1` .
A: 21000
